Tested on: SK-MEL-28
Assay: NCI tumour cell line growth inhibition, 48 h
Calls of active or inactive are those of the source. Rule as the data show it: active = GI50 up to about 1.1 µM and inactive = higher.
Classes used: active, inactive

>>> category("CN1Cc2c(nc(-c3ccccc3)c[n+]2[O-])N(C)C1")
"inactive"
>>> category("O=C(CCC(=O)C1CCC/C1=N/O)Nc1ccc(Cl)cc1 (stereo not drawn)")
"inactive"
>>> category("CC(=O)OCC1OC(On2ccccc2=S)C(OC(C)=O)C(OC(C)=O)C1OC(C)=O (stereo not drawn)")
"inactive"
>>> category("O=C(NCCCCCCNCc1cccc2ccccc12)Nc1cccc2ccccc12")
"inactive"
>>> category("COc1cc2nncc(SCc3ccc(Cl)c(Cl)c3)c2cc1OC")
"inactive"
>>> category("CC1(C)CC(=O)C(/C(=N/NC(=S)NN)C(=O)Nc2nc3ccc([N+](=O)[O-])cc3s2)C(=O)C1")
"inactive"
>>> category("CC(C)C[P+](c1ccccc1)(c1ccccc1)c1ccccc1")
"inactive"
>>> category("CC1=CC(=O)/C(=C/NC(=S)c2ccncc2)C(=O)O1")
"inactive"
>>> category("NC(=O)/C=C/NC(=O)/C=N\\O")
"inactive"
>>> category("COc1ccc(CC2COc3cc(OC)cc(OC)c3C2=O)cc1 (stereo not drawn)")
"inactive"
>>> category("COC1CCC(=O)N1CN(C(C)=O)c1ccc(C)cc1 (stereo not drawn)")
"inactive"
>>> category("C[Si](C)(C)/C(Br)=C\\CCN1C(=O)CCC1O (stereo not drawn)")
"inactive"
>>> category("c1cc2nnnn2nc1N1CCCC1")
"inactive"
>>> category("CN(C)CCn1c(=O)c2ccc3c4c(nn3CCN(C)C)c3cc(N)ccc3n(c1=O)c24")
"active"
>>> category("O=C1NC(=O)C2C(=O)NC(=O)C1C2(c1ccccc1)c1ccc(Cl)cc1 (stereo not drawn)")
"inactive"
>>> category("CCCCCCCCCCCC[C@@H](O)[C@H]1CC[C@H]([C@H](O)CCCC[C@H](O)CCCCC[C@@H](O)CC2=C[C@H](C)OC2=O)O1")
"inactive"
>>> category("CC(C)(C)OC(=O)NCC(O)CNC(=O)OC(C)(C)C")
"inactive"
>>> category("CCC1C(=O)OCc2c1cc1n(c2=O)C(CC)c2c-1nc1ccccc1c2Cl (stereo not drawn)")
"inactive"
>>> category("N#C/C(C(=O)Nc1ccc(Cl)cc1)=C(/N)N1CCCC1")
"inactive"
>>> category("O=c1[nH]c2ccsc2c(=O)n1COCc1ccccc1")
"inactive"
>>> category("CSc1cc(Cl)c(C)cc1S(=O)(=O)NC(=O)Nc1ccc(Cl)cc1")
"inactive"
>>> category("O=C(CCN(C(=O)O)S(=O)(=O)c1ccc(NC(=O)c2ccccc2)cc1)NC1CCCCC1")
"inactive"
>>> category("O=C(O)c1ccc(NNC(=O)c2cccc3c(=O)c4ccccc4[nH]c23)cc1")
"inactive"
>>> category("CCOc1cc(NC(C)=O)ccc1C(=O)NN1C(=O)/C(=C/c2cc(OC)c(OC)c(OC)c2)N=C1c1ccccc1")
"inactive"
>>> category("Cc1ccc2c(c1)C(=O)C1(C2)Cc2cccc(C)c2C1=O (stereo not drawn)")
"inactive"
>>> category("CCOC(=O)NC1CC2CCC1(OC)C=C2C (stereo not drawn)")
"inactive"
>>> category("Brc1cc2c(cc1Br)CN(c1ccccc1)C2")
"inactive"
>>> category("O=C(CC(=O)c1ccccc1)c1ccccc1.O=C(CC(=O)c1ccccc1)c1ccccc1.O=C(CC(=O)c1ccccc1)c1ccccc1.[SiH4]")
"inactive"
>>> category("Cc1c([C@H](C)[C@@H]2NC[C@@H](C)C[C@H]2O)ccc2c1C[C@H]1[C@H]2CC=C2C[C@@H](O)CC[C@@]21C")
"inactive"
>>> category("CC1(C)CC2=C(Sc3ccccc3N2)C(=O)C1C(=O)C(=O)Nc1cccc([N+](=O)[O-])c1 (stereo not drawn)")
"inactive"
>>> category("CC1=C(C(=O)Nc2cc(F)c(F)cc2F)C(c2ccc([N+](=O)[O-])cc2)C(C(=O)Nc2cc(F)c(F)cc2F)=C(C)N1")
"inactive"
>>> category("Cc1nc(=O)c2cc(CN(C)c3ccc(C(=O)N[C@@H](CCC(=O)O)C(=O)O)s3)ccc2[nH]1")
"inactive"
>>> category("Cc1ccc(S(=O)(=O)NCC2CCCCC2=O)cc1 (stereo not drawn)")
"inactive"
>>> category("O=C1CCSSCCC(=O)NCCN1")
"inactive"
>>> category("CC(=O)OC12c3ccccc3C1CCCC21OCCCO1 (stereo not drawn)")
"inactive"
>>> category("CCN1C(NCCO)=NS(=O)(=O)c2ccccc21")
"inactive"
>>> category("O=C1OC(=O)C2CCCC3CCCC1C32 (stereo not drawn)")
"inactive"
>>> category("CCc1nc2c([nH]1)C(=O)c1ccccc1C2=O")
"inactive"
>>> category("N=C(N)SCc1ccc(Cl)cc1Cl.O=[N+]([O-])c1c(O)c(Cl)cc(Cl)c1Cl")
"inactive"
>>> category("COC(=O)CCCC(=O)C1=NN(c2ccc(Cl)cc2)Cc2ccccc2N1")
"inactive"
>>> category("Clc1cc(Cl)c2c(Cl)cc(Cl)c3c2c1N=S=N3")
"inactive"
>>> category("c1cc2c(c(NC3=NCCO3)c1)CCC2")
"inactive"
>>> category("CCOC(=O)c1nc2ccccc2nc1Oc1ccc(OC)cc1")
"inactive"
